# IC50, HEK293 ST2 NFkB listing for each entry below
# target desc: T1, cynomolgus monkey IL-33 (cys mut) (cynomolgus monkey)
# T1 chain: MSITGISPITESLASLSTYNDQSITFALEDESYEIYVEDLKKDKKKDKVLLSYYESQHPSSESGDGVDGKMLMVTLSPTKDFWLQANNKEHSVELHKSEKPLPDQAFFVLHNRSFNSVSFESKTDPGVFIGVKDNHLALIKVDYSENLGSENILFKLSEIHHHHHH
# assay method text: cell-based or functional assay
Your answer should be a plain number; it is taken to be in nM.

binder	measure unit	IC50, HEK293 ST2 NFkB
rat 30B11 (30B11 hybridoma) (antibody, V domains shown) VH: QVKLLQSGAALVKPGASVKMSCATSGFSFTDYWVSWVKQSHGKGLEWIGEIYPNSGADNFNENFKGKATLTVDKSTSTAYMELSRLTSEDSAIYYCTRGPYYYSTQIIFAYWGQGTLVTVSS VL: NIVMTQSPKSMSISVGDRVTMNCKASQNVGNNLAWYQQKPGQSPKLLIYYASNRYTGVPDRFTGGGYGTDFTLTINSVQAEDAAFYYCQRIYNSPPTFGGGTKVELR	nM	0.2
30B11 chimera/hu J (antibody, human IgG1, kappa, V domains shown, also called 30B11 hu Jseg) VH: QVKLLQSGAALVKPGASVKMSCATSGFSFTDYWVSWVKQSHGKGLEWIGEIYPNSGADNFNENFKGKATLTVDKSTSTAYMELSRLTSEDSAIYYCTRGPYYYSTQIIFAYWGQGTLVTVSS VL: NIVMTQSPKSMSISVGDRVTMNCKASQNVGNNLAWYQQKPGQSPKLLIYYASNRYTGVPDRFTGGGYGTDFTLTINSVQAEDAAFYYCQRIYNSPPTFGGGTKVEIKR	nM	0.11
rat 7E8 (7E8 hybridoma) (antibody, V domains shown) VH: EVQLVETGGGLVQPGRSLKLSCKTSGFTFSSYWMYWIRQAPGKGLEWVSSITPNGGNTYYPDSVKGRFTISRDNAENTIYLQMSSLRSEDTATYFCAKGHYYYTSYSLGYWGQGSLVTVSS VL: EIQMTQSPSVLSASVGDRVTLSCKASQNINKHLDWYQQKLGEAPKLLIYFTNNLQTGIPSRFSGSGSGTDCTLTINSLQPGDVATYFCFQYNNGWTFGGGTKLELD	nM	0.21

Okay, now this binder:
Query: Find the measured IC50, HEK293 ST2 NFkB of rat 30A1 (30A1 hybridoma) (antibody, V domains shown) VH: QVNLLQSGATLVKPGASMKMSCKASGYSFTDYWVSWVKQSHGKSLEWIGEIYPNSGANNFNKEFKDKATLTVDKSTSTAYMELTRLTSEDSAVYYCTRGPYYYSSQIIFAYWGQGTLVTVSS VL: IIVMTQSPKSMSISVGDRVTMNCKASQNVGNNIAWYRQKPGQSPELLIYYASNRYTGVPDRFTGGGYGTDFTLTINSVQAEDAAFYYCQRIYNSPPTFGGGTKVELK and report it.
Response: 2.95
